Tested on: blood pressure drop induced by PAF
Test: Action on the blood pressure drop induced by PAF
Assay type: in vivo, F344 rats
Conditions: Rattus norvegicus, iv, 0.05 h; 1.0 mg/kg, i.v., three minutes after 0.5 μg/kg PAF; ratio of blood pressure rise to drop; read-out: Recovery rate
Experimental: Action on the Blood Pressure Drop Induced by […] Cannulae were inserted into the carotid and the jugular of each of F344 rats anesthetized with Pento (50 mg/kg, i. p.). The blood pressure was determined at the carotid and 0.5 ml/kg of PAF or the test compound was given through the jugular. Three minutes after the injection of 0.5 μg/kg of PAF, the test compound was given and the antagonism thereof was evaluated. […]
Overview of reported inhibition in vivo at 1 mg/kg across a group of compounds:
Just the number in %, nothing appended.

# count of solved cases: 4
CC[n+]1ccccc1CN(C(C)=O)C(=O)OCC(COc1cc(OC)c(OC)c(OC)c1)OC (centres unmarked) [Example 17] : 97.5
CC[n+]1ccccc1CN(C(C)=O)C(=O)OCC(COCCc1cc(OC)c(OC)c(OC)c1)OC (centres unmarked) [Example 16] : 67.8
CC[n+]1ccccc1CN(C(C)=O)C(=O)OCC(COC(=O)Nc1cc(OC)c(OC)c(OC)c1)OC (centres unmarked) [Example 1] : 21.7
CC[n+]1ccccc1CN(C(=O)OCC(COCc1cc(OC)c(OCC2CCCCC2)c(OC)c1)OC)C(=O)c1ccccc1OC (centres unmarked) [Example 20] : 91.1

Could you now consider this next compound?
Kindly note the recorded inhibition in vivo at 1 mg/kg for CC[n+]1ccccc1CN(C(=O)OCC(COCc1ccc(-c2ccccc2)cc1)OC)C(=O)c1ccccc1OC (centres unmarked) [Example 19] , which is 74.9
